Biological target: CDK12 (Homo sapiens, UniProt Q9NYV4)
Sequence (Q9NYV4 whole entry): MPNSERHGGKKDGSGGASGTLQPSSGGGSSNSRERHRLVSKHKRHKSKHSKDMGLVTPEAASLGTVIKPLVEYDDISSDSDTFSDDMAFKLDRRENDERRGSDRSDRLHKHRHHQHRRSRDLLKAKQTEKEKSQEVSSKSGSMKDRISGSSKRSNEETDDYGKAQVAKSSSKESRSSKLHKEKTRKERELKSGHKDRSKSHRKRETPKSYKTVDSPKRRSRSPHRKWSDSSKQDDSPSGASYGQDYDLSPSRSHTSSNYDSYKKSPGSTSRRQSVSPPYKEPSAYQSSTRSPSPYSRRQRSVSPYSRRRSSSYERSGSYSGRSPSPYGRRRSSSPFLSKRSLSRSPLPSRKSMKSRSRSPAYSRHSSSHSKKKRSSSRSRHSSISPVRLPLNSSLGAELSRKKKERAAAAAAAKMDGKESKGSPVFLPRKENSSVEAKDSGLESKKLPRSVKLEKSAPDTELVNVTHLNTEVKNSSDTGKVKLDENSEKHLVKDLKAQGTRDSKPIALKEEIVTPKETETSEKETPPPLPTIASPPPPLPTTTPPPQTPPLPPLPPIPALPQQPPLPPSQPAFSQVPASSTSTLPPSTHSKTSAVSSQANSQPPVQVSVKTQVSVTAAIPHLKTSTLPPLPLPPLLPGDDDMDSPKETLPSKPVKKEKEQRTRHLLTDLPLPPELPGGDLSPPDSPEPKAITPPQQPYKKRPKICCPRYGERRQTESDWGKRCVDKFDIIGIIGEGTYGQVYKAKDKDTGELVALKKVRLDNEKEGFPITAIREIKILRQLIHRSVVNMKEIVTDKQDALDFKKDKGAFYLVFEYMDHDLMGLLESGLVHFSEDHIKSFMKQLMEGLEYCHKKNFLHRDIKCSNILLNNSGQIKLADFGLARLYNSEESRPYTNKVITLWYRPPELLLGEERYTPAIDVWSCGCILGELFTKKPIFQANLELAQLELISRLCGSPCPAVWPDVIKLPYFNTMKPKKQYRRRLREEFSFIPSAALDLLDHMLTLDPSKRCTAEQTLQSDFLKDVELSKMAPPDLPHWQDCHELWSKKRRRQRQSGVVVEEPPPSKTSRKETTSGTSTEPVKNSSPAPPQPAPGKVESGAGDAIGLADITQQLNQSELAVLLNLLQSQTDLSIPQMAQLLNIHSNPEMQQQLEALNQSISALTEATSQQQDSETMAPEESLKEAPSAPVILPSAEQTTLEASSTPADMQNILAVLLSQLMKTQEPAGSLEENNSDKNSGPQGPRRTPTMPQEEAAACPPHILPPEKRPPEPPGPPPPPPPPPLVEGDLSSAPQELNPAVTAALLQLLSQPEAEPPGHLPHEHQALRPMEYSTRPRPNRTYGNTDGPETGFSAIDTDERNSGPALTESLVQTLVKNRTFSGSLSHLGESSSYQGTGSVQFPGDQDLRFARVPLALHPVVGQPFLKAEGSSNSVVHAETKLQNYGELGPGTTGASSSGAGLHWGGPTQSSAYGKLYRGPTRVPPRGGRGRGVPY
Sequence (O75909 whole entry partner): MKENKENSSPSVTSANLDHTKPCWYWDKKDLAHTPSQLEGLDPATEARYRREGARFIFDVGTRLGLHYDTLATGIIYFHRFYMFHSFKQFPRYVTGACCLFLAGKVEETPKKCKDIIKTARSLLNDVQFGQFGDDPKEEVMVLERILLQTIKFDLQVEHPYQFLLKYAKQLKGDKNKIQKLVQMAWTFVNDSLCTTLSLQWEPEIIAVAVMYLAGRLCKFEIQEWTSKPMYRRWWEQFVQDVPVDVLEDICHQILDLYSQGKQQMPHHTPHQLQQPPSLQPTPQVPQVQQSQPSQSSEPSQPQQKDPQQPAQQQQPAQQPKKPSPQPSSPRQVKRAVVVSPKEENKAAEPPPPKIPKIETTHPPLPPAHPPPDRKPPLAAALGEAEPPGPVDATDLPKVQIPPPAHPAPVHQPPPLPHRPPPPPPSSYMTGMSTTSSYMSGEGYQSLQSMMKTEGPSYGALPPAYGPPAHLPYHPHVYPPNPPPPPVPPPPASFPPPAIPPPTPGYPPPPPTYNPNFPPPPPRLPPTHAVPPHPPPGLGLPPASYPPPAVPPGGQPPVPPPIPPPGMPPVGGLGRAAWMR
Test: Inhibition of cyclin-dependent kinase 12 (% enzyme activity at 1 uM and IC50)
Format: biochemical
Observable: IC50 (nM)

Compound	Observable	Quantitative Readout
Cc1ccnc2[nH]c(CNc3cc(N4CCOCC4)nn4c(-c5cnn(C(F)F)c5)cnc34)nc12 [Cmpd 58]	IC50	65
Clc1cccc2nc(CNc3cc(NC4CCNCC4)nn4c(-c5ccsc5)cnc34)[nH]c12 [Cmpd 72]	IC50	56
CC(C)n1cc(-c2cnc3c(NCc4nc5c(F)c(F)ccc5[nH]4)cc(N4CCOCC4)nn23)cn1 [Cmpd 24]	IC50	1270
Cc1cc(-c2cnc3c(NCc4nc5c(C)ccnc5[nH]4)cc(N4CCN(C)CC4)nn23)cs1 [Cmpd 90]	IC50	1410
CC(C)n1cc(-c2cnc3c(NCc4nc5cc(Cl)c(Cl)cc5[nH]4)cc(N4CCOCC4)nn23)cn1 [Cmpd 15]	IC50	3000

1: CC(C)n1cc(-c2cnc3c(NCc4nc5c(F)c(F)ccc5[nH]4)cc(N4CCN(C)CC4)nn23)cn1 [Cmpd 23]
2: CN1CCN(c2cc(NCc3nc4cccc(Cl)c4[nH]3)c3ncc(-c4csc(C#N)c4)n3n2)CC1 [Cmpd 81]
3: CN1CCN(c2cc(NCc3nc4cccc(Cl)c4[nH]3)c3ncc(-c4ccsc4)n3n2)CC1 [Cmpd 66]
With regard to IC50, arrange the entries in ascending order, please. Provide the labels, sequenced as the question asks.
3, 2, 1
(3: 90 nM, 2: 647 nM, 1: 1110 nM)
